List of protein stability index values.
- protocol_notes: protein stability index of a GFP-peptide fusion (GPS, HEK-293T) (PSI 1-6); higher = more stable;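 note: 24-mer peptide tiles fused after GFP, lentivirally expressed, FACS-sorted into six equal bins by GFP/DsRed ratio, decoded by Illumina sequencing, PSI is the read-weighted mean bin number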
- measurement_setup: treatment: MLN4924 1 uM, 8 h; c terminus: a fixed tail appended
No unit in the answer, please; the number alone is enough.

These solved cases illustrate the format of a correct answer.
biosequence	recorded_number
TNTGPAGSSASTSPAPLDTCPSSS [DYRK1B]	5.31
QRITKQLEKWMQKNVEENLYSSSL [GLT8D2]	3.03

API: the following record is the query input.
So, MDETSPLVSPERAQPPDYTFPSGS [PI4K2A] ? Its protein stability index was 4.78

* * *

- protocol_notes: protein stability index of a GFP-peptide fusion (GPS, HEK-293T) (PSI 1-6); higher = more stable
- measurement_setup: treatment: MLN4924 1 uM, 8 h; c terminus: a fixed tail appended
Recorded protein stability index, one value per entry.
Please reply with the value in numeric form only.

These solved cases illustrate the format of a correct answer.
biosequence	measurement_kind	recorded_number
SSSSSSSWLTRRAIRPENRAPGAG [EMD]	protein stability index	4.16
ALEEADKMFLRTREPALDGGFQMH [EID1]	protein stability index	3.64
KNNLSFIETSALDSTNVEEAFKNI [RAB11B]	protein stability index	4.33
CKDSESNKHLCYVFDSEKCVSIPD [GULP1]	protein stability index	3.41
VLGIPLTLVMFQSLGERMNTFVRY [KCNK9]	protein stability index	2.83
MEALDLQPGLSFLNLGSGTGYLSS [PCMTD2]	protein stability index	3.45
PWKEETFLVLQSLLERQVEMTPEK [FANCE]	protein stability index	3.08
MDRFDCQYLMATFVHVYITSFIRG [CDS1]	protein stability index	3.67

Now look at this one.
Reported protein stability index of YFCYKAILEFAEKEGMVSSGQNLL [PTPN9] : 2.38

* * *

- protocol_notes: protein stability index of a GFP-peptide fusion (GPS, HEK-293T) (PSI 1-6); higher = more stable
- measurement_setup: treatment: DMSO; c terminus: a fixed tail appended
measurement_kind: protein stability index
Reply: number alone, nothing else.

biosequence	protein stability index
SPWADGTPCGPAQACMGGRCLHMD [ADAMTS4]	4.28
FFLKHPDKDVRLLVACCLADIFRI [PDS5B]	2.95
AWPFYKPVDAEALELHDYHDIIKH [BRD3]	3.04
PLLSPLLASRNPCPWHYLHLSGSH [RSPH3]	2.15
ITRESHTHRDRPSQQQPLRNQVVS [CSNK1G1]	4.49

The sequence TQIGFADLMGVLTKGVREVERALQ [FEM1A] showed protein stability index equal to 2.29

Per the records, this sequence ( DDTETVPSEQSHASGKLRKKKKKQ [TCF25] ) has protein stability index equal to 5.52

Note to self: protein stability index recorded for TSYTRQACLVSCFQQLMVETCSCG [SCNN1D] was 2.48

Sure, the documented protein stability index for SPRSTSVTTTSSASVTTTSNASGR [KRT13] is 5.31

protein stability index reading for LGPSRDPDPLNICVFILLLVFIVV [RTP4] : 3.8

protein stability index reported for this sequence MSCRDRTQEFLSACKSLQTRQNGI [STX5] : 3.1

# protein stability index of NHFVWRLIPVPMATQIQQLLQDKQ [VPS39] = 2.3

For record TILLDGRRVRLELWDTSGQGRFCT [RAB40C] the listed protein stability index is 2.16

The sequence listed as ETDVWFSKQRKDFEGMAFLETEQG [GMCL1] has a reported protein stability index of 4.12

protein stability index reading for TTTSAATATTAPPALDIFGDLFES [SNAP91] : 4.47

* * *

- protocol_notes: protein stability index of a GFP-peptide fusion (GPS, HEK-293T) (PSI 1-6); higher = more stable
- measurement_setup: treatment: DMSO; c terminus: a fixed tail appended
measurement_kind: protein stability index
Enter a number only.

Solved cases below.
biosequence	protein stability index
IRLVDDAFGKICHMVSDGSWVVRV [INTS4]	3.07
LSSGMAVAGMPTAYDLSSVIASGS [CARM1]	3.02

// KKAIKDLGISPSTCSFNPGVIVAN [GLT8D2] : protein stability index value = 2.95
